Give Activity for every item shown.
assay: Free radical scavenging activity of DPPH expressed as percent polyphenol
Number only, in %; omit the unit.

## Task Which Activity is reported for this compound? "Oc1ccc(/C=C/c2cc(O)cc(O)c2)cc1"
## Result 100

## Task Which Activity is reported for this compound? "Oc1cc(O)cc(/C=C/c2ccc(O)c(I)c2)c1"
## Result 88

## Task Which Activity is reported for this compound? "Oc1cc(O)cc(/C=C/c2ccc(O)c(Br)c2)c1"
## Result 98

## Task Which Activity is reported for this compound? "COc1cc(/C=C/c2ccc(O)c(CCF)c2)cc(OC)c1"
## Result 50.4

## Task Which Activity is reported for this compound? "Oc1cc(O)cc(/C=C/c2ccc(O)c(CCF)c2)c1"
## Result 95.6

## Task Which Activity is reported for this compound? "Oc1ccc(/C=C/c2cc(O)c(I)c(O)c2)cc1"
## Result 72

## Task Which Activity is reported for this compound? "Oc1ccc(/C=C/c2cc(O)cc(O)c2Br)cc1"
## Result 85.8

## Task Which Activity is reported for this compound? "COc1ccc(/C=C/c2cc(OC)cc(OC)c2Br)cc1"
## Result 26.6
